- System: collagen-induced aggregation of human platelets
- experiment: Inhibition of collagen-induced aggregation of human platelets in vitro (method of Born, platelet-rich human plasma)
- Assay type: cell-based
- assay_context: Homo sapiens, Platelet, read-out: concentration for a half-maximum inhibition (IC50) of the collagen-induced platelet aggregation
Where a name gives a salt, the structure may show the parent alone.
experimental_endpoint: pIC50
Note on units: pIC50 is unitless, being -log10 of a concentration expressed in mol/L.

Problem: Tell me measured pIC50 for CC1CC(=O)NN=C1c1cc(-n2ccnc2)cs1 (stereo not shown) [Substance D, hydrochloride] please.
Result: 7.34
